- method-summary: reduction of polyQ htt aggregates in cells – imaging, exon1htt(103Q)mCFP cells, high-content imaging, primary screen (AID 483);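 note: compound exposure lasted 3 days before fixation; percent of the per-plate median nuclei count of sample wells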
- recorded-conditions: exon1htt(103Q)mCFP cell line, aggregate imaging, at 2 µM; measured here: cell count, toxicity
Below is a list of entries, each paired with its recorded nuclei count value.
Give the number; % is assumed, so skip it.

Sample answers from the record:
compound | measured-parameter | measured-value
CCCc1cc(=O)[nH]c(/N=C(\N)Nc2ccccc2)n1 | nuclei count | 94.3
CCOc1cc(C2C(C#N)=C(N)Oc3n[nH]c(CC)c32)ccc1OCCN1CCOCC1 (configuration not stated) | nuclei count | 108
COc1ccc(-c2cc(C(F)(F)F)n3nc(C(=O)N4CCOCC4)nc3n2)cc1 | nuclei count | 103

QUERY: Give the reported nuclei count for this compound. C=CCSC1=C(C#N)C(c2ccccc2Cl)CC(=O)N1 (configuration not stated)
RESULT: 74.3

QUERY: Find the measured nuclei count of "CCOC(=O)c1cnc(SCC)[nH]c1=O" and report it.
RESULT: 118
